The reported measurements were obtained from patent US10597388B2.

Test system: johnsongrass (Sorghum halepense)
Assay: Test C greenhouse herbicide test, pre- and postemergence
Type: in vivo
Conditions: Postemergence, 31 g ai/ha; scale 0 to 100 (0 no effect, 100 complete control)

| structure_smiles_string | Plant response rating, Johnsongrass |
| --- | --- |
| COC(=O)Oc1c(C)nn(C)c(=O)c1-c1c([N+](=O)[O-])ccc2ccccc12 | 5 |
| CCC(=O)Oc1c(C)nn(C)c(=O)c1-c1ccc(Br)c2ccccc12 | 5 |
| CSCC(=O)Oc1c(C)nn(C)c(=O)c1-c1cccc2ccccc12 | 5 |
| CC(=O)Oc1c(C)nn(C)c(=O)c1-c1c(C)cc(C)c2ccccc12 | 10 |
| CC(=O)Oc1c(Br)nn(C)c(=O)c1-c1c(C)ccc2ccccc12 | 10 |
| COc1nn(C)c(=O)c(-c2c(C)ccc3ccccc23)c1OC(C)=O | 10 |
| Cc1nn(C)c(=O)c(-c2cccc3ccc(C#N)cc23)c1O | 5 |

---

Tested on: ducksalad (Heteranthera limosa)
Test: Test B flooded paddy test
Type: in vivo
Conditions: 250 g ai/ha, Flood; visual rating on scale of 0 to 100 where 0 is no effect and 100 is complete control; 13 to 15 d after treatment
Reported Plant response rating, Ducksalad values for a set of compounds

| structure_smiles_string | Plant response rating, Ducksalad |
| --- | --- |
| Cc1ccc2ccccc2c1-c1c(OC(=O)N2CCOCC2)c(Br)nn(C)c1=O | 0 |
| COC(=O)Oc1c(Br)nn(C)c(=O)c1-c1c(C)ccc2ccccc12 | 40 |
| Cc1cc(C)c2c(-c3c(OC(=O)C(C)(C)C)c(C)nn(C)c3=O)c(C)sc2c1 | 0 |
| CC(=O)Oc1c(C)nn(C)c(=O)c1-c1ccc(Cl)c2ccccc12 | 0 |
| CC(=O)Oc1c(C)nn(C)c(=O)c1-c1c(C)sc2c(C)cc(C)cc12 | 30 |
| Cc1nn(C)c(=O)c(-c2c(C)sc3ccccc23)c1OC(=O)N1CCOCC1 | 0 |
| COc1nn(C)c(=O)c(-c2c(C)sc3ccc(Cl)cc23)c1O | 0 |
| Cc1nn(C)c(=O)c(-c2c(C)sc3ccccc23)c1O | 0 |
| Cc1ccc2sc(C)c(-c3c(OCC#N)c(C)nn(C)c3=O)c2c1 | 0 |
| CCC(=O)Oc1c(C)nn(C)c(=O)c1-c1c(C)sc2ccc(C)cc12 | 0 |
| CCC(=O)Oc1c(C)nn(C)c(=O)c1-c1c(C)sc2c(C)cc(C)cc12 | 80 |
| COc1nn(C)c(=O)c(-c2cccc3ccccc23)c1O | 0 |
| COc1nn(C)c(=O)c(-c2c(C)ccc3ccccc23)c1O | 0 |
| CCOC(=O)Oc1c(C)nn(C)c(=O)c1-c1c(C)sc2c(C)cc(C)cc12 | 70 |
| Cc1cc(C)c2ccccc2c1-c1c(O)cnn(C)c1=O | 0 |
| Cc1ccc2ccccc2c1-c1c(O)cnn(C)c1=O | 0 |
| Cc1sc2ccc(Cl)cc2c1-c1c(OS(C)(=O)=O)c(Cl)nn(C)c1=O | 50 |
| Cc1ccc2ccccc2c1-c1c(O)c(Cl)nn(C)c1=O | 80 |
| Cc1ccc2ccccc2c1-c1c(O)c(C)nn(C)c1=O | 0 |
| CCc1nn(C)c(=O)c(-c2c(C)oc3ccccc23)c1O | 0 |
| COc1nn(C)c(=O)c(-c2c(C)sc3ccc(Cl)cc23)c1OS(C)(=O)=O | 0 |
| Cc1nn(C)c(=O)c(-c2cccc3ccc(C#N)cc23)c1O | 0 |
| Cc1ccc2ccc(C)c(-c3c(O)c(C)nn(C)c3=O)c2c1 | 20 |

---

Reported Plant response rating, Galium values for a set of molecules
Test system: galium (catchweed bedstraw, Galium aparine)
Assay: Test A greenhouse herbicide test, postemergence
Type: in vivo
Conditions: 500 g ai/ha, visual rating after approx. 10 d, 0 to 100 scale (0 no effect, 100 complete control)

| structure_smiles_string | Plant response rating, Galium |
| --- | --- |
| C#Cc1ccc2cccc(-c3c(O)c(C)nn(C)c3=O)c2c1 | 80 |
| Cc1cc(C)c2ccccc2c1-c1c(OS(C)(=O)=O)c(C)nn(C)c1=O | 100 |
| CC(=O)Oc1c(C)nn(C)c(=O)c1-c1c(C)cc(C)c2ccccc12 | 100 |
| Cc1ccc2sc(C)c(-c3c(OCC#N)c(C)nn(C)c3=O)c2c1 | 90 |
| CCOC(=O)Oc1c(C)nn(C)c(=O)c1-c1c(C(F)(F)F)ccc2ccccc12 | 90 |
| Cc1cc(C)c2sc(C)c(-c3c(OCC#N)c(C)nn(C)c3=O)c2c1 | 90 |
| Cc1n[nH]c(=O)c(-c2cccc3ccccc23)c1O | 70 |
| COC(=O)Oc1c(C)nn(C)c(=O)c1-c1c([N+](=O)[O-])ccc2ccccc12 | 100 |
| Cc1nn(C)c(=O)c(-c2c(C)sc3ccccc23)c1OC(=O)N1CCOCC1 | 80 |

---

Tested on: corn (Zea mays)
Test: Test A greenhouse herbicide test, pre- and postemergence
Type: in vivo
Settings: Postemergence, 500 g ai/ha; visual rating after approx. 10 d, 0 to 100 scale (0 no effect, 100 complete control)
Reported Plant response rating, Corn values for a set of compounds

| compound | Plant response rating, Corn |
| --- | --- |
| Cc1ccc2ccccc2c1-c1c(OC(=O)N2CCOCC2)c(Br)nn(C)c1=O [Compound 176] | 0 |
| COc1nn(C)c(=O)c(-c2c(C)ccc3ccccc23)c1OC(C)=O [Compound 138] | 20 |
| CCOC(=O)Oc1c(C)nn(C)c(=O)c1-c1c(C(F)(F)F)ccc2ccccc12 [Compound 146] | 30 |
| CCC(=O)Oc1c(C)nn(C)c(=O)c1-c1c(C(F)(F)F)ccc2ccccc12 [Compound 147] | 0 |
| Cc1nn(C)c(=O)c(-c2c(C)sc3ccc(Cl)cc23)c1O [Compound 104] | 20 |
| COC(=O)Oc1c(Br)nn(C)c(=O)c1-c1c(C)ccc2ccccc12 [Compound 137] | 70 |
| CCC(=O)Oc1c(C)nn(C)c(=O)c1-c1c(C)sc2ccc(Cl)cc12 [Compound 109] | 30 |
| Cc1nn(C)c(=O)c(-c2ccc(Cl)c3ccccc23)c1OP(C)(C)=O [Compound 187] | 30 |
| Cc1cc(C)c2ccccc2c1-c1c(OS(C)(=O)=O)c(C)nn(C)c1=O [Compound 154] | 40 |
| CCc1nn(C)c(=O)c(-c2c(C)oc3ccccc23)c1O [Compound 117] | 0 |

---

Tested on: oat, wild (wild oat, Avena fatua)
Assay: Test C greenhouse herbicide test, postemergence
Format: in vivo
Details: Postemergence, 31 g ai/ha; scale 0 to 100 (0 no effect, 100 complete control)
quantity: Plant response rating, Oat, Wild

| compound | quantity | reading |
| --- | --- | --- |
| Cc1nn(C)c(=O)c(-c2cc(F)cc3ccccc23)c1OS(C)(=O)=O [Compound 115] | Plant response rating, Oat, Wild | 55 |
| CCC(=O)Oc1c(C)nn(C)c(=O)c1-c1c(C)sc2ccc(Cl)cc12 [Compound 109] | Plant response rating, Oat, Wild | 80 |
| CSCC(=O)Oc1c(C)nn(C)c(=O)c1-c1cccc2ccccc12 [Compound 171] | Plant response rating, Oat, Wild | 65 |
| Cc1nn(C)c(=O)c(-c2ccc(F)c3ccccc23)c1OC(=O)CC(F)(F)F [Compound 123] | Plant response rating, Oat, Wild | 70 |

---

System: blackgrass (Alopecurus myosuroides)
Assay: Test C greenhouse herbicide test, pre- and postemergence
Format: in vivo
Conditions: Preemergence, 62 g ai/ha; scale 0 to 100, 0 is no effect, 100 is complete control
Description: […]

| structure_smiles_string | Plant response rating, Blackgrass |
| --- | --- |
| CC(=O)Oc1c(C)nn(C)c(=O)c1-c1c(C)sc2ccc(C)cc12 | 85 |
| COc1nn(C)c(=O)c(-c2c(C)ccc3ccccc23)c1OC(=O)OC(C)C | 30 |
| COc1nn(C)c(=O)c(-c2c(C)ccc3ccccc23)c1O | 55 |

---

Tested on: crabgrass, large (large crabgrass, Digitaria sanguinalis)
Test: Test C greenhouse herbicide test, pre- and postemergence
Format: in vivo
Conditions: Preemergence, 62 g ai/ha; scale 0 to 100, 0 is no effect, 100 is complete control
quantity: Plant response rating, Crabgrass, Large

| structure_smiles_string | subject_of_test | quantity | reading |
| --- | --- | --- | --- |
| COc1nn(C)c(=O)c(-c2c(C)ccc3ccccc23)c1OC(C)=O | crabgrass, large (large crabgrass, Digitaria sanguinalis) | Plant response rating, Crabgrass, Large | 40 |
| COc1nn(C)c(=O)c(-c2c(C)ccc3ccccc23)c1O | crabgrass, large (large crabgrass, Digitaria sanguinalis) | Plant response rating, Crabgrass, Large | 40 |
| CSCC(=O)Oc1c(C)nn(C)c(=O)c1-c1cccc2ccccc12 | crabgrass, large (large crabgrass, Digitaria sanguinalis) | Plant response rating, Crabgrass, Large | 45 |
| Cc1cc(C)c2sc(C)c(-c3c(OC(=O)OC(C)C)c(C)nn(C)c3=O)c2c1 | crabgrass, large (large crabgrass, Digitaria sanguinalis) | Plant response rating, Crabgrass, Large | 70 |
| CCC(=O)Oc1c(C)nn(C)c(=O)c1-c1ccc(Br)c2ccccc12 | crabgrass, large (large crabgrass, Digitaria sanguinalis) | Plant response rating, Crabgrass, Large | 30 |
